- test details: chemical genetic growth profiling, strain panel (AID 1159580);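 note: tested at 20 µM; growth read once vehicle control cultures reached saturation at 30 °C; 1 = growth at the plate median or of vehicle wells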
- condition: S. cerevisiae deletion strains, growth OD, locus YJL187C, strain SWE1 (second series), stronger effect = lower value
About 2,000 (36%) of roughly 5,500 compounds were called active. Another 18% or so got no clear call; they are omitted. The list shows a part of the results.
Flag rule - normalized growth less than 1 flags TRUE; the remaining entries get FALSE.

The examples below pair each entry with its known result.
C=C(C)C1CNC(C(=O)O)C1CC(=O)O (stereo unspecified); FALSE
CC(C)CC(NC(=O)C(Cc1ccccc1)NC(=O)CNC(=O)CNC(=O)C(N)Cc1ccc(O)cc1)C(=O)O (stereo unspecified); FALSE

Let us examine a further case.
Take the compound CN(C)CC/C=C1\c2ccccc2Sc2ccc(Cl)cc21 and say whether its normalized growth is less than 1. TRUE

====

Listing of recorded normalized growth by entry.
- test details: chemical genetic growth profiling, strain panel (AID 1159580)
- condition: S. cerevisiae deletion strains, growth OD, locus YOL147C, strain pex11, stronger effect = lower value
Out of some 5,500 compounds screened, about 2,000 (36%) were called active. Not shown: some 18% with an inconclusive outcome. Some of the results follow.
Lab note: record just the number, no unit beside it.

C[C@@H]1[C@H]2[C@H](O[C@@H]3O[C@H](CO)[C@@H](O)[C@H](O)[C@H]3O)OC=C(C(=O)O)[C@H]2C[C@@H]1O; 0.991
Cc1cc(O)c(C)c(O)c1C(=O)O; 1.01

Tell me the measured normalized growth of O=C1C=CC(=C(c2ccc(O)cc2)c2ccc(O)cc2)C=C1 , please. 0.985

Tell me the measured normalized growth of COc1cc2c(cc1OC)C1C(=O)c3c(cc4c(c3O)C=CC(C)(C)O4)OC1CO2 (stereo unspecified) , please. 1.01

Tell me the measured normalized growth of N=c1ccn2c(n1)O[C@@H]1C2O[C@H](CO)[C@H]1O (stereo partly specified) , please. 1.01

Tell me the measured normalized growth of CC(N)C(=O)OC(C)(C)Cc1ccc(Cl)cc1 (stereo unspecified) , please. 0.988

Tell me the measured normalized growth of C=Cc1c2[nH]c(c1C)C=c1[nH]c(c(C)c1C=C)=CC1N=C(C=c3[nH]c(c(C)c3CCC(=O)O)=C2)C(CCC(=O)O)=C1C (stereo unspecified) , please. 0.996

====

- test details: chemical genetic growth profiling, strain panel (AID 1159580)
- condition: S. cerevisiae deletion strains, growth OD, locus YJL157C, strain FAR1, stronger effect = lower value
The campaign covered roughly 5,500 compounds. About 2,000 (36%) were called active. Inconclusive results (about 18%) are left out. The list shows a part of the results.
endpoint name: normalized growth
Lab note: record just the number, no unit beside it.

Worked set:
Cc1cc(C(=O)Nc2ccc(Cl)cc2)nn1C(C)(C)C; 0.973
Cc1ccc(/C=C2\CSc3ccc(F)cc3C2=O)cc1; 0.906
O=C(N/C=C/c1ccsc1)Nc1cc(C(F)(F)F)cc(C(F)(F)F)c1; 0.676
Cc1ccc(OCC2SCCN2C(=O)c2ccc(C(F)(F)F)cc2)c([N+](=O)[O-])c1 (stereo not given); 0.994

Then this compound:
Tell me the measured normalized growth of Cc1ccccc1C(=O)Oc1ccc(C(F)(F)F)cc1[N+](=O)[O-] , please. 0.899

====

- test details: chemical genetic growth profiling, strain panel (AID 1159580)
- condition: S. cerevisiae deletion strains, growth OD, locus YPR141C, strain kar3, stronger effect = lower value
Hit rate of the full screen: of about 5,500 compounds, about 2,000 (36%) were called active. Roughly 18% stayed inconclusive and do not appear here. This is one part of the list.
endpoint name: normalized growth
Lab note: record just the number, no unit beside it.

C=C1C([C@]2(C)C(CC(=O)OC)[C@@](C)(COC(C)=O)OC(=O)C[C@@H]2OC(C)=O)[C@@H](OC=O)[C@H](OC(=O)C(OC(C)=O)C(C)CC)[C@@]2(C)[C@H](c3ccoc3)CC(=O)C12O (some centres not stated); 1.02
CC1CC2C3CC(F)C4=CC(=O)C=CC4(C)C3(F)C(O)CC2(C)C1(O)C(=O)CO (configuration not stated); 1.02
CN1CCC(=C2c3ccccc3CC(=O)c3sccc32)CC1; 1.01
CC(=O)OC(C)(C)[C@@H]1Cc2cc3ccc(=O)oc3cc2O1; 1
CCCCCCCCCCCCCCCC(=O)OC/C=C(C)/C=C/C=C(C)/C=C/C1=C(C)CCCC1(C)C; 0.983

Tell me the measured normalized growth of CCC(C)C(=O)O[C@H]1[C@H](O)C2C(CN3CC(C)CCC3[C@@]2(C)O)C2C[C@]34O[C@]5(O)C(OC(=O)C(C)(O)C(C)O)CC[C@@]3(C)C5C(OC(C)=O)[C@@H](OC(C)=O)C4[C@@]21O (some centres not stated) , please. 0.996

Tell me the measured normalized growth of CC1=C(/C=C/C(C)=C/C=C/C(C)=C/C=C/C=C(C)/C=C/C=C(C)/C=C/C23OC2(C)CC(O)CC3(C)C)C(C)(C)CC(O)C1 (configuration not stated) , please. 1.01

Tell me the measured normalized growth of CN(C)CC/C=C1\c2ccccc2Sc2ccc(Cl)cc21 , please. 1.02

Tell me the measured normalized growth of OCC(O)C(O)C(O)CO (configuration not stated) , please. 0.992

Tell me the measured normalized growth of CC(=O)NC1SCCC1=O (configuration not stated) , please. 1

Tell me the measured normalized growth of Cc1cccc(C)c1OCC(C)N (configuration not stated) , please. 0.983

Tell me the measured normalized growth of CC(C)(OC(=O)c1ccccc1)[C@@H]1Cc2cc3ccc(=O)oc3cc2O1 , please. 0.995

Tell me the measured normalized growth of CCC(C)C(OC(C)=O)C(=O)OC1C(O)C2C3(C)C=CC(=O)C(C)(C)C3CC(OC(=O)C(O)C(C)C)C2(C)C23OC2CC(c2ccoc2)C13C (configuration not stated) , please. 0.99

Tell me the measured normalized growth of C[N+](C)(C)CCCCCC[N+](C)(C)C , please. 0.98

Tell me the measured normalized growth of CN1CCC(=C2c3ccccc3Sc3ccccc32)CC1 , please. 1.01

Tell me the measured normalized growth of CO[C@H]1[C@H](O)[C@H](O[C@H]2CC[C@]3(C)C4CC[C@]5(C)C(C6=CC(=O)OC6)CC[C@]5(O)C4CC[C@@H]3C2)O[C@@H](C)[C@@H]1O (some centres not stated) , please. 1

Tell me the measured normalized growth of CC1=C(/C=C/C(C)=C/C=C/C(C)=C/C=C/C=C(C)/C=C/C=C(C)/C=C/C2=C(C)C(=O)C(O)CC2(C)C)C(C)(C)CC(O)C1=O (configuration not stated) , please. 0.989

====

- test details: chemical genetic growth profiling, strain panel (AID 1159580);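 note: tested at 20 µM; growth read once vehicle control cultures reached saturation at 30 °C; 1 = growth at the plate median or of vehicle wells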
- condition: S. cerevisiae deletion strains, growth OD, locus YOR083W, strain WHI5 (second series)
Hit rate of the full screen: of about 5,500 compounds, about 2,000 (36%) were called active. About 18% were inconclusive and are not listed. Rule as the data show it: active = normalized growth mostly below about 0.91 (no sharp cut-off); inconclusive = no clear call, values can overlap the other calls; inactive = mostly above about 0.92. The list shows a part of the results.
Thanks in advance; please answer with one of these: T for active, F for inactive

The examples below pair each entry with its known result.
Clc1ccc(N2CCN(Cc3c[nH]c4ncccc34)CC2)cc1; F
OC[C@H]1O[C@@H](n2cnc3c(Nc4ccccc4)ncnc32)C(O)[C@H]1O (stereo partly specified); F

Short answer needed: outcome of this test for Ic1ccc(N2CCN(Cc3c[nH]c4ncccc34)CC2)cc1 ? T

Short answer needed: outcome of this test for CN1CCc2cc(Cl)c(O)cc2[C@@H](c2ccccc2)C1 ? F

Short answer needed: outcome of this test for O=C1O/C(=C/Br)CCC1c1cccc2ccccc12 (stereo unspecified) ? T

Short answer needed: outcome of this test for Cc1c(C(=O)c2cccc3ccccc23)c2cccc3c2n1[C@H](CN1CCOCC1)CO3 ? F

====

- test details: chemical genetic growth profiling, strain panel (AID 1159580);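 note: tested at 20 µM; growth read once vehicle control cultures reached saturation at 30 °C; 1 = growth at the plate median or of vehicle wells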
- condition: S. cerevisiae deletion strains, growth OD, locus YHR027C, strain rpn1, stronger effect = lower value
Out of some 5,500 compounds screened, about 2,000 (36%) were called active. Another 18% or so got no clear call; they are omitted. The list shows a part of the results.
Flag rule - normalized growth less than 1 flags Criterion met; the remaining entries get Criterion not met.

The examples below pair each entry with its known result.
CCCCCCNC(=O)n1cc(F)c(=O)[nH]c1=O; Criterion met
NC(=O)c1ccc[n+]([C@@H]2O[C@H](COP(=O)([O-])OP(=O)(O)OC[C@H]3O[C@@H](n4cnc5c(N)ncnc54)[C@H](O)[C@@H]3O)[C@@H](O)[C@H]2O)c1; Criterion not met

Let us examine a further case.
Take the compound CN(C)CC/C=C1\c2ccccc2Sc2ccc(Cl)cc21 and say whether its normalized growth is less than 1. Criterion met

====

- test details: chemical genetic growth profiling, strain panel (AID 1159580);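 note: tested at 20 µM; growth read once vehicle control cultures reached saturation at 30 °C; 1 = growth at the plate median or of vehicle wells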
- condition: S. cerevisiae deletion strains, growth OD, locus YDL028C, strain MPS1, stronger effect = lower value
Hit rate of the full screen: of about 5,500 compounds, about 2,000 (36%) were called active. Not shown: some 18% with an inconclusive outcome. The list shows a part of the results.
Listing of recorded normalized growth by entry.
Lab note: record just the number, no unit beside it.

Worked set:
Cc1nn(Cc2cccc(C(=O)Nc3ccc(Cl)cc3)c2)c(C)c1Br; 0.978
N#Cc1ccc(S(=O)(=O)Nc2ccccc2Oc2ccc(Cl)cc2Cl)cc1; 0.979

Then this molecule:
Tell me the measured normalized growth of Cc1c(Cc2ccc(F)cc2)c(=O)oc2cc(O)ccc12 , please. 0.976
